- tested.system: Relipidated TF (Tissue Factor) (UniProt P13726 33-295, limits assumed)
- procedure.details: cell-based or functional assay
For each record, write down the corresponding Lag Time [min], Ab 10 nM.
Give bare numbers, in min.

1) 5G9 (humanized TF8-5G9, CNTO 860) (antibody, V domains shown) VH: QVQLVESGGGVVQPGRSLRLSCKASGFNIKDYYMHWVRQAPGKGLEWIGLIDPENGNTIYDPKFQGRFTISADNSKNTLFLQMDSLRPEDTAVYYCARDNSYYFDYWGQGTPVTVSS VL: DIQMTQSPSSLSASVGDRVTITCKASQDIRKYLNWYQQKPGKAPKLLIYYATSLADGVPSRFSGSGSGTDYTFTISSLQPEDIATYYCLQHGESPYTFGQGTKLEIT; 10.4
2) 39A (antibody, human IgG1, V domains shown) VH: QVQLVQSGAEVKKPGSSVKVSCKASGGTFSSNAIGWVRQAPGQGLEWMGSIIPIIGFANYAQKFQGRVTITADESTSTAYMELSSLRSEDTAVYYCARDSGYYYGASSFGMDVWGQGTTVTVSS VL: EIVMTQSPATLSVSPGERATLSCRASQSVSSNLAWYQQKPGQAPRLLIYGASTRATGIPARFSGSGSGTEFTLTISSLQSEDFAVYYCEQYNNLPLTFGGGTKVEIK; 10.8
3) TF-011 (antibody, V domains shown) VH: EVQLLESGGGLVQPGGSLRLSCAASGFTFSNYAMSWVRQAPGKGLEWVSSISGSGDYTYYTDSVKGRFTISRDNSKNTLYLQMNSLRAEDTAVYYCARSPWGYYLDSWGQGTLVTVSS VL: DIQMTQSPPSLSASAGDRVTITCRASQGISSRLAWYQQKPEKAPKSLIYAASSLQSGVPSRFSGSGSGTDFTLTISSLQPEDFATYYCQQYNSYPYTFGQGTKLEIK; 8

Would you kindly look at the next entry?
Challenge: Fill in the blank: the reported Lag Time [min], Ab 10 nM of 25A (antibody, human IgG1, V domains shown) VH: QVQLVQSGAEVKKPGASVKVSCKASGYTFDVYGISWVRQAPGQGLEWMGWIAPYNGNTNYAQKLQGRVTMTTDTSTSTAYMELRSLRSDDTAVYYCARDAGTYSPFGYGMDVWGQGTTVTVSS VL: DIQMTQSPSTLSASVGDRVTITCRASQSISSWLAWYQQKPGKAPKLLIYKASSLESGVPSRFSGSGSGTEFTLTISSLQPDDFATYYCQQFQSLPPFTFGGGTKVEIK is ____.
Response given: 5
